system: human melanocortin-4 receptor (recombinant hMC4-R) (human, UniProt P32245 1-332)
Sequence (P32245 whole entry): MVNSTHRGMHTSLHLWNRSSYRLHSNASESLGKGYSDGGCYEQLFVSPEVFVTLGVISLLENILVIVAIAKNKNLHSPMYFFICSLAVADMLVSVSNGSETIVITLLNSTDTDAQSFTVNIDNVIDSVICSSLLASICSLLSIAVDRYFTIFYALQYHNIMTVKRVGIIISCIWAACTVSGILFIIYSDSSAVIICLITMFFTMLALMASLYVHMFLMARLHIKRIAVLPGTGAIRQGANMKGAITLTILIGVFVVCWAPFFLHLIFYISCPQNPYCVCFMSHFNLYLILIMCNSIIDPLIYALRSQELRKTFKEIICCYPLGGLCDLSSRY
measurement_notes: cell-based or functional assay
Bridge positions count the residues as written; N and C are the ends. Square brackets hold non-standard residues; d marks the D form. * marks the point of attachment. Orn = NCCC[C@H](N)C(=O)O; Dab = NCC[C@H](N)C(=O)O; Bn = c1ccc(C*)cc1
recorded_endpoint: Emax (%), cAMP

Reference set, count: 3
>  <binder>
Ac-R[Orn]H[dF]RWE-NH2 (lactam 2-7) [Peptide No. 38: Ac-Arg-cyclo(Orn-His-D-Phe-Arg-Trp-Glu)-NH2]

>  <endpoint_unit>
%

>  <Emax (%), cAMP>
84

$$$$
>  <binder>
Ac-R[Orn]H[dF]RWE-OH (lactam 2-7) [Peptide No. 37: Ac-Arg-cyclo(Orn-His-D-Phe-Arg-Trp-Glu)-OH]

>  <endpoint_unit>
%

>  <Emax (%), cAMP>
88

$$$$
>  <binder>
Ac-KDH[dF]RWK-NH2 (lactam 2-7; SMILES CC(=O)N[C@@H](CCCCN)C(=O)N[C@H]1CC(=O)NCCCC[C@@H](C(N)=O)NC(=O)[C@H](Cc2c[nH]c3ccccc23)NC(=O)[C@H](CCCNC(=N)N)NC(=O)[C@@H](Cc2ccccc2)NC(=O)[C@H](Cc2c[nH]cn2)NC1=O, also called Peptide Structure (Asp...Lys) in the row of No. 40) [Asp...Lys analog of peptide No. 40: Ac-Lys-cyclo(Asp-His-D-Phe-Arg-Trp-Lys)-NH2]

>  <endpoint_unit>
%

>  <Emax (%), cAMP>
85

$$$$

(A) Ac-R[Orn]S(Bn)[dF]RWE-OH (lactam 2-7) [Peptide No. 48: Ac-Arg-cyclo(Orn-Ser(Bzl)-D-Phe-Arg-Trp-Glu)-OH]
(B) Ac-RD[Dab][dF]RWK-OH (lactam 2-7) [Asp...Lys analog of peptides No. 5 and No. 42: Ac-Arg-cyclo(Asp-Dab-D-Phe-Arg-Trp-Lys)-OH]
Incoming: Sort A and B by Emax (%), cAMP descending and give the first. # respond with the chosen item's label
Outgoing: B
(B: 91%, A: 50%)
